Tested on: Saccharomyces cerevisiae;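 further: PSI is a weighted mean of sequencing reads over stability bins, variants kept only with over 10 reads, mCherry proximal and sfGFP distal, peptide attached via GGGS linker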
assay.procedure: protein stability index of tFT-peptide fusion (C-terminal peptide) (PSI (0-1 scale)); higher = more stable (slower turnover)
condition.notes: genetic background: wild type; temperature: 30 C
value.kind: protein stability index

Query: Recorded protein stability index for `PPRPSLLPRALF` , please?
Result: 0.642

Query: Please answer likewise for `RGALGGGSNRLA`
Result: 0.788

Query: Next record, please: `SMNCTSLRPGSF`
Result: 0.706

Query: Again, but for `GGGCLRGFWCVW`
Result: 0.724

Query: Now try `CACIPLHFAPSL` .
Result: 0.683

Query: Try this sequence too: `SRSGPGEIVTTG`
Result: 0.688

Query: // next record `LRVAWVCISIVA`
Result: 0.117

Query: // query: `FTLYLASVHFTR`
Result: 0.56

Query: Next up: `VPGIGGGVSVRG`
Result: 0.612

Query: Item: `EGGERERGNRER`
Result: 0.718

Query: Further, for `IGFCVRGYGTTG` ?
Result: 0.727

Query: How about `ERRWKRKVIGLC` ?
Result: 0.274

Query: Cool, now `PPPSPPPPPLLP`
Result: 0.651

Query: Next: `RLLGSGHCLLYI`
Result: 0.613

Query: And the next one, `SWCRCLALLDCT` ?
Result: 0.659

Query: Same read-out for `LRKCVKAECKSQ` ?
Result: 0.684

Query: Quick one: `FAGGPSIAAHVL`
Result: 0.712

Query: Quick one: `SFCYFSCPSLIM`
Result: 0.718

Query: Also `LPPPPRPPLPSP` , if possible.
Result: 0.737

Query: // same read-out, input: `LRHVARCARGGA`
Result: 0.647

Query: Same question for `IPPLPSSIPRSF` please.
Result: 0.673

Query: Do the same for `PPTGHAPSRALT` please
Result: 0.676

Query: Repeat with `PFSPLPGPPPPP`
Result: 0.733

Query: Same lookup for `PAFVPPFTPATP` , please.
Result: 0.76

Query: `SLRGIVFQSPSP` , same question.
Result: 0.737

Query: And then `GAVGGGSAADPE` , what is it?
Result: 0.667

Query: Another sequence to check: `VFALPPAPPPSP`
Result: 0.722

Query: Note, next up: `APAPPPSPPLPS`
Result: 0.68

Query: Same read-out for `NTNNKKNSKHSN` ?
Result: 0.661

Query: What about this sequence? `NKKKKKKRNGAP`
Result: 0.658

Query: // repeat for `YSWGVLSWLSFG` and report
Result: 0.648

Query: And for `LGWGGGGPLSGG` ?
Result: 0.72

Query: // same read-out, input: `FWRPIPQSPLPQ`
Result: 0.72

Query: Entry to check: `LSDSSDSTLGAI`
Result: 0.667

Query: Then this sequence: `FLKGTTSQQDYT`
Result: 0.702

Query: Also `QGWDGSRRRPGL` , if possible.
Result: 0.706

Query: Same for `SPLPPPPPSSSS`
Result: 0.661

Query: Same question, `SSLAPLLYLDTP` this time
Result: 0.661

Query: Next: `PFPPLPLPLPLP`
Result: 0.712

Query: Repeat with `VKGYISLLLVLI`
Result: 0.345

Query: Further, for `LFTTYVFLVFFQ` ?
Result: 0.372

Query: Do the same for `VFFCHFRFTPPS` please
Result: 0.692

Query: How about `DRRVSYKKKKRK` ?
Result: 0.672

Query: Query `CSVVMGFYCRGA` next
Result: 0.694

Query: Continue with `KKIRKKLKKMKM`
Result: 0.644

Query: How about `GGVSRSRNTRWN` ?
Result: 0.677

Query: Param item: `VHGWRPLLFHTR`
Result: 0.519

Query: `SLSLYSSTSLLP` ?
Result: 0.694

Query: Also need `SNHPPLSFHTGR` , thanks.
Result: 0.734

Query: What would you report for `LVDKGSADVLDD` ?
Result: 0.632

Query: Next entry: `RALPSPPPCPPG`
Result: 0.524

Query: Subsequent entry: `PTTTLYNPSPPN`
Result: 0.742

Query: Same again, this time with `SKWGQIKRVAIR`
Result: 0.592

Query: `SCCPPSRTFFPS` ?
Result: 0.734

Query: Moving on to `FVCRRDIMSGIF`
Result: 0.657

Query: Entry to check: `RIRTLASRRLEG`
Result: 0.709

Query: Further, for `KKNITRLKNKMT` ?
Result: 0.416

Query: Next: `RLRVIMVSVGGV`
Result: 0.544

Query: Next sequence: `CHTESKLKRKKW`
Result: 0.645

Query: Also `WLWYLSTRHSKL` , if possible.
Result: 0.787

Query: Param item: `ICVTSFSVWGCC`
Result: 0.592

Query: Another sequence to look at: `FLVRMIYYRRHP`
Result: 0.616

Query: What about `CLGGRRVCRCKG` ?
Result: 0.631

Query: Please answer likewise for `GGGGVVVVQGAG`
Result: 0.725

Query: Here is the next sequence: `PPLEHPGIAGGR`
Result: 0.644

Query: Also need `SAFPGGCCSILL` , thanks.
Result: 0.709

Query: What would you report for `GLGLGLSGGAML` ?
Result: 0.665

Query: Try the sequence `ICCGLCRDCSCL`
Result: 0.732

Query: Okay, and `SNAGRRRTNRIP` ?
Result: 0.682

Query: What do we get for `ICRFSNRYSCPL` ?
Result: 0.689

Query: Next entry: `PSPPPFPPIPFC`
Result: 0.708

Query: Can you check `VSRLTVIPAVQT` next?
Result: 0.652

Query: What do we get for `GPLPPPFSALPP` ?
Result: 0.703

Query: Here is the next sequence: `QVGSLEIFLCFI`
Result: 0.632

Query: Okay, and `LPCCYVWFFLSL` ?
Result: 0.499

Query: // repeat for `VLLEGCQSYVIW` and report
Result: 0.652

Query: Also `PSAPLVPNLLAA` ?
Result: 0.662

Query: Same read-out for `LLLVSLAVPLSL` ?
Result: 0.509

Query: One more sequence: `VGIGLTLSLRFS`
Result: 0.598

Query: Now the sequence `PDRSLASPPTTR`
Result: 0.711

Query: How about `EEGKSTREKEGG` ?
Result: 0.685

Query: Same again, this time with `GDWIYRMDRILI`
Result: 0.816
